# experimentalSystem: Tyrosine-protein kinase ITK/TSK (Homo sapiens, UniProt Q08881)
# Sequence (Q08881 whole entry): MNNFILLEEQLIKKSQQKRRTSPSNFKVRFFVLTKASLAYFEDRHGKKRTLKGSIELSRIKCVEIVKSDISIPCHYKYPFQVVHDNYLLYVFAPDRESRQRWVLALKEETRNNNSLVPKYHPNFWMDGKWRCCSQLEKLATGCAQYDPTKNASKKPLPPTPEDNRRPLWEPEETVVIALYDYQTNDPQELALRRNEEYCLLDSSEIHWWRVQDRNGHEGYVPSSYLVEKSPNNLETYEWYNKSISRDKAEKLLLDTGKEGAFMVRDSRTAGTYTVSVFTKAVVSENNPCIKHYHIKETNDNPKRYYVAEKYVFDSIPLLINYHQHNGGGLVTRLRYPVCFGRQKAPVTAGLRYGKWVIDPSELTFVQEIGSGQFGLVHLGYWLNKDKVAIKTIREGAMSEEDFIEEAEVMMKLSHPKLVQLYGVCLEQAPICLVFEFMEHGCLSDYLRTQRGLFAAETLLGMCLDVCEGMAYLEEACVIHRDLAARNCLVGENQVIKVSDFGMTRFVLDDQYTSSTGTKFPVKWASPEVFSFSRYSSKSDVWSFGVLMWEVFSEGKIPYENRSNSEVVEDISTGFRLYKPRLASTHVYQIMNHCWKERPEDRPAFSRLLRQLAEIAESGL
# testDetails: In Vitro Inhibition Assay: ITK and JAK3 Kinase assay procedures:Enzyme was incubated with substrate peptide in reaction buffer in the presence and absence of test compounds or Staurosporine. All additions were done on ice, followed by the addition of ATP mix. Wells were uniformly mixed using an Eppendorff plate shaker and incubated at 30° C. for 20 min, and stopped by the addition of 5 μL of 3% …
# Description: All additions were done on ice, followed by the addition of ATP mix. Wells were uniformly mixed using an Eppendorff plate shaker and incubated at 30° C. for 20 min, and stopped by the addition of 5 μL of 3% phosphoric acid. Volume was increased to 100 μL by adding 0.8% phosphoric acid which was then transferred to PC filter mats (Millipore), pre-equilibrated with 70% ethanol and water. Plates were washed thrice with 100 μL 0.8% phosphoric acid and dried for an hour at 60° C. 100 μL scintillation fluid was added into each well and reading taken in Perkin Elmer TOPCOUNT beta counter.
experimentalEndpoint: IC50

Known results for molecules:
Cc1c[nH]c2ncc(Nc3cccc(CC#N)c3)cc12 = > 1000 nM
CC/C=C/C(=O)Nc1cccc(-c2cnc3[nH]cc(C)c3c2)c1 = > 1000 nM
COc1c(F)cc(F)cc1-c1c[nH]c2ncc(-c3cc(NC(=O)/C(C)=C/C(C)(C)C)ccc3F)cc12 = < 100 nM
C=CC(=O)Nc1cccc(-c2cnc3c(c2)CC(=O)N3)c1 = > 100 nM
CC/C=C/C(=O)Nc1cc(-c2cnc3[nH]cc(C)c3c2)ccc1Cl = > 100 nM

Give the measured IC50 of `Cc1c[nH]c2ncc(-c3cccc(NC(=O)/C=C/N(C)C)c3)cc12` .
> 1000 nM

Subsequent entry: `C=CC(=O)Nc1cccc(-c2cnc3[nH]cc(-c4cc5ccc(Cl)cc5[nH]4)c3n2)c1`
> 100 nM

Subsequent entry: `Cc1c[nH]c2ncc(-c3ccc(Cl)c(NC(=O)/C=C/N(C)C)c3)cc12`
> 1000 nM

Subsequent entry: `CC/C=C/C(=O)Nc1cccc(-c2cnc3[nH]nc(C)c3c2)c1`
> 100 nM

Subsequent entry: `C=CC(=O)Nc1cccc(-c2cnc3[nH]cc(-c4cc(F)cc(F)c4OC)c3n2)c1`
> 100 nM

Subsequent entry: `C=CC(=O)Nc1cccc(-c2cnc3[nH]ccc3n2)c1`
> 1000 nM

Subsequent entry: `C=CC(=O)Nc1cccc(-c2cnc3[nH]ccc3c2)c1`
> 1000 nM
